tested on: SN12C renal; experiment: NCI tumour cell line growth inhibition, 48 h
Property Label: GI50

Take a look at these entries with their results.
| Compound | Property Label | Experimental Value |
| --- | --- | --- |
| CO/N=C(/C)COc1ccc2c(c1)oc(=O)c1cc(OC)ccc12 | GI50 | > 100000 nM |
| COc1ccc(-c2nc3sccn3c2-c2ccnc(NCCNS(=O)(=O)c3ccc(C(F)(F)F)cc3)n2)cc1 | GI50 | 688 nM |
| CC(=O)OC(C(=O)[O][Ge]([CH3])([CH3])[CH3])c1ccccc1 (centres undefined) | GI50 | > 100000 nM |
| CC(=O)[O-].CC(=O)[O-].O=C([CH-]C(=O)c1ccccc1)c1ccccc1.[Nd+3].[OH3+] | GI50 | 23500 nM |
| COc1ccc2[nH]c(C(=O)OCc3ccc4c(Br)cc(Br)c(O)c4n3)cc2c1 | GI50 | 617 nM |

### Prompt Please give the documented GI50 of `CCCCCCCCCN=C(N)c1ccc(N2CCN(c3ccc(C(N)=NCCCCCCCCC)cc3)CC2)cc1`
### Response 1520 nM

### Prompt Please give the documented GI50 of `COc1ccc(-c2cc(=O)c3c(OC)c4ccoc4c(/C=C/C=O)c3o2)cc1`
### Response 2320 nM

### Prompt Please give the documented GI50 of CCCCCCCCCCCCC(O)C1CCC(C(O)CCCCC(O)CCCCCC2CC(CC(C)=O)C(=O)O2)O1 (centres undefined)
### Response 2540 nM

### Prompt Please give the documented GI50 of `CSC1=CC(=O)c2ccccc2C1=O`
### Response 5310 nM

Sourced from PubChem BioAssay (NCI)
